Target: T1, FLAG-tagged human APRIL (human, UniProt O75888 105-250, limits assumed)
T1 construct: also called FLAG-tagged APRIL; FLAG-APRIL; not shown: FLAG tag
T1 sequence (looked up): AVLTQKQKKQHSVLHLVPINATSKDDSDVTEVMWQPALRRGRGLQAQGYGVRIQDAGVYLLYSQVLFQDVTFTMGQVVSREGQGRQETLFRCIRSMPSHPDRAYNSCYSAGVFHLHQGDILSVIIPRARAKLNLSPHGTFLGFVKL
Assay: FLAG-APRIL ELISA after 10 min at 65 °C, antibody at 3.16 µg/ml
reported_metric: % residual binding after heat treatment (room temperature = 100%)
Report the figure in % without appending any unit label.

Could you share which % residual binding after heat treatment (room temperature = 100%) value was measured for VH12.VL15 (antibody, human IgG4 S228P, kappa, V domains shown, Humanized IgG4 (S241P, Kabat) with human kappa, from HEK293T; also called 12.15) VH: QVQLVQSGAEVKKPGASVKVSCKASGYTFTSYVMHWVRQAPGQGLEWMGYINPYNDAPKYNEKFKGRVTMTRDTSISTAYMELSRLRSDDTAVYYCARGLGYALYYAMDYWGQGTTVTVSS VL: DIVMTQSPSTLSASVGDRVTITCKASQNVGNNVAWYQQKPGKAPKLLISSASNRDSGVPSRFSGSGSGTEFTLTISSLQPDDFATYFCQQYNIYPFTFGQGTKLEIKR ?
66.4
